From: patent USRE38117E1

Test system: HL-60(TB)
assay_name: NCI 60 cell line screen (SRB), Leukemia
Type: cell-based
test_conditions: HL-60(TB) (Leukemia)

>  <compound>
COC1OC2(C)CCC3CCCC(CCOC(=O)c4ccc(C(=O)OCCC5CCCC6CCC7(C)OOC56C(OC)O7)cc4)C31OO2 (stereo not shown)

>  <Log10LC50>
−5.26 M

$$$$
>  <compound>
COC1OC2(C)CCC3CCCC(CCOC(=O)c4cccc(C(=O)OCCC5CCCC6CCC7(C)OOC56C(OC)O7)c4)C31OO2 (stereo not shown)

>  <Log10LC50>
>−4.30 M

$$$$
>  <compound>
CC(=O)O[C@H]1C(=O)[C@@]2(C)[C@H]([C@H](OC(=O)c3ccccc3)[C@]3(O)C[C@H](OC(=O)[C@H](O)[C@@H](NC(=O)c4ccccc4)c4ccccc4)C(C)=C1C3(C)C)[C@]1(OC(C)=O)CO[C@@H]1C[C@@H]2O [Paclitaxel, paclitaxel, reference compound]

>  <Log10LC50>
>−4.53 M

$$$$
>  <compound>
C[C@@H]1CC[C@H]2[C@@H](C)C(=O)O[C@@H]3O[C@@]4(C)CC[C@@H]1[C@]32OO4 [QHS, reference compound]

>  <Log10LC50>
>−4.00 M

$$$$

----------
Tested on: CCRF-CEM
assay_name: NCI 60 cell line screen (SRB), Leukemia
Assay type: cell-based
readout_type: Log10TGI (M)

>  <compound>
COC1OC2(C)CCC3CCCC(CCOCCC4CCCC5CCC6(C)OOC45C(OC)O6)C31OO2 (stereo not shown)

>  <assay_system>
CCRF-CEM

>  <readout_type>
Log10TGI

>  <u>
M

>  <prefix_operator>
=

>  <recorded_measurement>
−4.61

$$$$
>  <compound>
COC1OC2(C)CCC3CCCC(CCOC(=O)c4cccc(C(=O)OCCC5CCCC6CCC7(C)OOC56C(OC)O7)c4)C31OO2 (stereo not shown)

>  <assay_system>
CCRF-CEM

>  <readout_type>
Log10TGI

>  <u>
M

>  <prefix_operator>
=

>  <recorded_measurement>
−5.70

$$$$
>  <compound>
CC(=O)O[C@H]1C(=O)[C@@]2(C)[C@H]([C@H](OC(=O)c3ccccc3)[C@]3(O)C[C@H](OC(=O)[C@H](O)[C@@H](NC(=O)c4ccccc4)c4ccccc4)C(C)=C1C3(C)C)[C@]1(OC(C)=O)CO[C@@H]1C[C@@H]2O [Paclitaxel, paclitaxel, reference compound]

>  <assay_system>
CCRF-CEM

>  <readout_type>
Log10TGI

>  <u>
M

>  <prefix_operator>
>

>  <recorded_measurement>
−4.00

$$$$
>  <compound>
COC1OC2(C)CCC3CCCC(CCOC(=O)c4ccc(C(=O)OCCC5CCCC6CCC7(C)OOC56C(OC)O7)cc4)C31OO2 (stereo not shown)

>  <assay_system>
CCRF-CEM

>  <readout_type>
Log10TGI

>  <u>
M

>  <prefix_operator>
=

>  <recorded_measurement>
−4.89

$$$$

----------
Test system: TK-10
assay_name: NCI 60 cell line screen (SRB), Renal Cancer
Assay type: cell-based
test_conditions: TK-10 (Renal Cancer)

>  <compound>
COC1OC2(C)CCC3CCCC(CCOCCC4CCCC5CCC6(C)OOC45C(OC)O6)C31OO2 (stereo not shown) [Compound 6, Trioxane Ether Dimer]

>  <Log10LC50>
>−4.00 M

$$$$
>  <compound>
COC1OC2(C)CCC3CCCC(CCOC(=O)c4ccc(C(=O)OCCC5CCCC6CCC7(C)OOC56C(OC)O7)cc4)C31OO2 (stereo not shown) [Compound 11, Bis-ester Dimer]

>  <Log10LC50>
>−4.00 M

$$$$
>  <compound>
C[C@@H]1CC[C@H]2[C@@H](C)C(=O)O[C@@H]3O[C@@]4(C)CC[C@@H]1[C@]32OO4 [QHS, reference compound]

>  <Log10LC50>
>−4.00 M

$$$$
>  <compound>
COC1OC2(C)CCC3CCCC(CCOC(=O)c4cccc(C(=O)OCCC5CCCC6CCC7(C)OOC56C(OC)O7)c4)C31OO2 (stereo not shown) [Compound 10, Trioxane Bis-ester Dimer]

>  <Log10LC50>
>−4.30 M

$$$$
